# Test system: DU145
# run-description: Proliferation assay (crystal violet), DU145
# Assay type: cell-based
# test-context: Homo sapiens, DU-145, 96 h; DU145 cells; 4 days incubation; crystal violet staining; read-out: IC50 inhibition of proliferation, DU145
measurement-name: IC50 (µM)

Would you please look over these solved cases?
>>> experimental_value("Cc1nsc(Nc2cncc(C(F)(F)F)n2)c1C(=O)Nc1ccc(OCC2CCN(C(=O)OC(C)(C)C)C2)nc1 (stereo not drawn) [Example 110]")
2
>>> experimental_value("Cc1nsc(Nc2cnc3ccccc3n2)c1C(=O)Nc1cccc(-c2nc(C(C)(C)C)no2)c1 [Example 108]")
0.57
>>> experimental_value("Cc1nsc(Nc2cnc3ccccc3n2)c1C(=O)Nc1ccc(OC2CCN(CC(F)(F)F)CC2)nc1 [Example 21]")
1.9
>>> experimental_value("Cc1nsc(Nc2ccc(C#N)cn2)c1C(=O)Nc1ccc(OC2CCCN(C(=O)OC(C)(C)C)C2)nc1 (stereo not drawn) [Example 36]")
0.86

[1] Cc1nsc(Nc2cnc3ccccc3n2)c1C(=O)Nc1cccc(C(=O)OC(C)(C)C)c1 [Example 49]
[2] Cc1nsc(Nc2ccc(C#N)cn2)c1C(=O)Nc1ccc(OC2CCCN(CC(F)F)C2)nc1 (stereo not drawn) [Example 39]
[3] Cc1nsc(Nc2cnc(C(F)(F)F)cn2)c1C(=O)Nc1ccc(OC2CCN(CCC(F)(F)F)CC2)nc1 [Example 10]
[4] Cc1nsc(Nc2ccc(C#N)cn2)c1C(=O)Nc1ccc(Oc2cccc(C(F)(F)F)c2)nc1 [Example 118]
Q: Hey, can you sort those molecules up there by IC50, smallest first? I would appreciate it if you listed the labels in the requested order.
Ans: 3, 4, 1, 2
